Values compiled from patent EP2253324A1.

Give measured pIC50 for each item. Keep answers brief.
Target: Angiotensin-converting enzyme (Oryctolagus cuniculus, UniProt P12822)
Sequence (P12822 34-1310): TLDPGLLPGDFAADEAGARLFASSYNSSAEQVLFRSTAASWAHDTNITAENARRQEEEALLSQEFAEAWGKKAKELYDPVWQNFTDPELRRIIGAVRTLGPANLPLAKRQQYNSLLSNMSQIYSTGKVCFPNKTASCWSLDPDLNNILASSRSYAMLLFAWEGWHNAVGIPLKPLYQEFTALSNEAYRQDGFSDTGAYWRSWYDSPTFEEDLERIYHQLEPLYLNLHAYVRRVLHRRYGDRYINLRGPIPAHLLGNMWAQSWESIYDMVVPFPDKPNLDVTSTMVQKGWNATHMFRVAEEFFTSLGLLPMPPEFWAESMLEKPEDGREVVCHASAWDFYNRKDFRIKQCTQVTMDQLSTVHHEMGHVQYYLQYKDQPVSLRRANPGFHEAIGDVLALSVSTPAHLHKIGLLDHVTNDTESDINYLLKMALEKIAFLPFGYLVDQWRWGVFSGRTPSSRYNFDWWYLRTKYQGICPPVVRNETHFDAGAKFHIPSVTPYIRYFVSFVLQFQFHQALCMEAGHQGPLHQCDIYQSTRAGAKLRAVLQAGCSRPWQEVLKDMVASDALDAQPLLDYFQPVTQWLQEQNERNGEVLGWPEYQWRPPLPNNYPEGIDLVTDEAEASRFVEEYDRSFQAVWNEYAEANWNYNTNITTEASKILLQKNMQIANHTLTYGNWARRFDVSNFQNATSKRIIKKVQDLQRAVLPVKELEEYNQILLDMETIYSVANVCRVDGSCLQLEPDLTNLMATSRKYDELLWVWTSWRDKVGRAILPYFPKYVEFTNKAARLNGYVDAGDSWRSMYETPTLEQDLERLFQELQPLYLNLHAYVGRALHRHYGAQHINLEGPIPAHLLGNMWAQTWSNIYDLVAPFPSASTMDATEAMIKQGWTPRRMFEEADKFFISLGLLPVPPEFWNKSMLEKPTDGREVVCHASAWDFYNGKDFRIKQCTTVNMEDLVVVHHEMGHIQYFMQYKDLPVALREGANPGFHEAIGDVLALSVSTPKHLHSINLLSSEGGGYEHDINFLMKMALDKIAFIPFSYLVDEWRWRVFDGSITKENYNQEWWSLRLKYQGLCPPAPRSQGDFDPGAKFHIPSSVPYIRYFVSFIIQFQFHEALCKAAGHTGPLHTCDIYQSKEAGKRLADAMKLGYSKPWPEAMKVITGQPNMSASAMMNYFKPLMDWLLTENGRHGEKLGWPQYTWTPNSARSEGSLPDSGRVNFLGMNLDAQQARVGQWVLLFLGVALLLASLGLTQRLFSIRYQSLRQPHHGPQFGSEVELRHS
Assay: ACE-inhibitory activity, spectrophotometric assay (Cushman & Cheung, modified)
Type: biochemical
Details: synthetic peptides, mean ± standard error (n=3); read-out: IC50± SE
Experimental: ACE-inhibitory activity was measured by Cushman & Cheung 1971 (Biochemical Pharmacology, 20, 1637-1648) spectrophotometric assay with some modifications, as reported by (Quirós et al., 2007). For this purpose, protein concentration of the aliquots of the pepsin hydrolysate was determined by the Kjeldahl method. […]
Where no end group is shown, it is not given here.
Lab note: report pIC50 as minus log10 of the concentration in molar units, number only.

Value of pIC50 reported for the substance YQKFPQY [YQKFPQY] is 4.70

Value of pIC50 reported for the substance AYFYPEL [AYFYPEL] is 5.18

Value of pIC50 reported for the substance VAPFPEVF [VAPFPEVF] is 3.44

Value of pIC50 reported for the substance HLPLPLL [HLPLPLL] is 4.46

Value of pIC50 reported for the substance FVAPFPEV [FVAPFPEV] is 3.32
